Origin of the recorded values: ChEMBL document CHEMBL4689842

Tested on: U2OS
Assay: Incucyte cell viability with U2OS; further: filed as whole numbers so only -1 and 0 and 1 occur
Format: toxicity, cell-based
Details: human, 24 h, 10 µM, compound concentration 10 uM, replicate number 1, timepoint 24 hours
Measurement Type: Growth Rate
I only need the number, thanks.

QUERY: Value lookup for Growth Rate; key = CCCCc1nc(Cl)c(CO)n1Cc1ccc(-c2ccccc2-c2nn[nH]n2)cc1
RESULT: 0

QUERY: Please give the measured Growth Rate for this molecule: C[C@@H]1CCc2ncc(F)cc2[C@H]2CCCN2c2ccn3ncc(c3n2)C(=O)N1
RESULT: 1

QUERY: Reported Growth Rate for Cc1cnc(-c2cc(Cl)ccc2F)cc1-n1c(=O)n(CC(N)=O)c2cnccc21 : what is it?
RESULT: 1

QUERY: Param item = FC(F)c1nc2ccccc2n1-c1nc(N2CCOCC2)nc(N2CCOCC2)n1 ; retrieve measured Growth Rate.
RESULT: 0

###

For each record, write down the corresponding Population Mitochondria Different-Phenotype (%).
System: U2OS
Assay: Multiplex assay against U2OS
Format: toxicity, cell-based
Details: human, 12 h, 10 µM, compound concentration 10 uM, replicate 2
Provide only the numeric value, understood in %.

QUERY: Fill in the blank: the reported Population Mitochondria Different-Phenotype (%) of CCC(=O)O[C@]1(C(=O)SCF)[C@H](C)C[C@H]2[C@@H]3C[C@H](F)C4=CC(=O)C=C[C@]4(C)[C@@]3(F)[C@@H](O)C[C@@]21C [FLUTICASONE PROPIONATE] is ____.
RESULT: 37

QUERY: Tell me the measured Population Mitochondria Different-Phenotype (%) of Cl.Cl.Nc1ncnc2c1c(-c1cccc(OCc3ccccc3)c1)cn2[C@H]1C[C@@H](CN2CCC2)C1 , please.
RESULT: 97

QUERY: Consider the compound CN(C)C/C=C/C(=O)Nc1cc2c(Nc3ccc(F)c(Cl)c3)ncnc2cc1O[C@H]1CCOC1.O=C(O)/C=C\C(=O)O.O=C(O)/C=C\C(=O)O [AFATINIB DIMALEATE] and give its measured Population Mitochondria Different-Phenotype (%).
RESULT: 62

###

Test system: HEK-293T
Experiment: Multiplex assay against HEK293T
Format: toxicity, cell-based
Details: human, 48 h, 10 µM, compound concentration 10 uM, replicate 1
Could you please report measured Total Cell Count for the items listed next?
Reply with the value as a number alone.

QUERY: What Total Cell Count value was documented for this molecule, O=C(O)c1ccc2cc(-c3ccc(O)c(C45CC6CC(CC(C6)C4)C5)c3)ccc2c1 ?
RESULT: 217

QUERY: So what's the measured Total Cell Count for this one? CCCn1c(=O)c2[nH]c(C34CC5CC(CC3C5)C4)nc2n(CCC)c1=O
RESULT: 257

QUERY: Please give the measured Total Cell Count for this molecule: COc1cc2c(NC3CCN(C(C)C)CC3)nc(N3CCC(F)(F)CC3)nc2cc1OCCCN1CCCC1
RESULT: 347

QUERY: Can you look up the measured Total Cell Count of COc1cc(N2CCC(N(C)C)CC2)ccc1Nc1ncc(Cl)c(Nc2ccccc2P(C)(C)=O)n1 for me?
RESULT: 239

QUERY: Fill in the blank: the reported Total Cell Count of C1=N/C2=N/c3ccc(OCCN4CCCC4)c(c3)COC/C=C\COCc3cccc(c3)C(=C1)N2 is ____.
RESULT: 253

QUERY: Bench note: what Total Cell Count did CNc1oc(-c2cccc3ccccc23)nc1C#N show?
RESULT: 2084

QUERY: Given CCn1c(-c2nonc2N)nc2cnc(Oc3cccc(NC(=O)c4ccc(OCCN5CCOCC5)cc4)c3)cc21 [GSK-269962A] , state its recorded Total Cell Count.
RESULT: 286

QUERY: Fill blank: measured Total Cell Count of the molecule CC(C)Oc1ccc(C(=O)N[C@H](CNC(=O)CN(C)C)Cc2ccc(-c3cn4cccc([C@H](C)O)c4n3)cc2)cc1Cl [GSK-923295A] is ____.
RESULT: 156

###

System: HEK-293T
Assay: Multiplex assay against HEK293T
Type: toxicity, cell-based
Details: human, 24 h, 1 µM, compound concentration 1 uM, replicate 2
Can you tell me Total Cell Count for the items I'm about to list?
Please reply with the number alone, leaving off any unit.

QUERY: Returns the measured Total Cell Count for the input molecule. Input: COc1cc2c(NC3CCN(C(C)C)CC3)nc(N3CCC(F)(F)CC3)nc2cc1OCCCN1CCCC1
RESULT: 272

QUERY: Bench note: what Total Cell Count did Cc1nc(Cc2cccc(C(F)(F)F)c2)sc1-c1ccc(C(N)=O)nc1 [TP-024n] show?
RESULT: 239

QUERY: // returns reported Total Cell Count for input CNc1oc(-c2cccc3ccccc23)nc1C#N
RESULT: 316

QUERY: Fill in: Total Cell Count of CN(C)C/C=C/C(=O)Nc1cc2c(Nc3ccc(F)c(Cl)c3)ncnc2cc1O[C@H]1CCOC1.O=C(O)/C=C\C(=O)O.O=C(O)/C=C\C(=O)O [AFATINIB DIMALEATE] is ___
RESULT: 2098

###

Test system: HEK-293T
Test: Multiplex assay against HEK293T
Assay type: toxicity, cell-based
Conditions: human, 12 h, 1 µM, compound concentration 1 uM, replicate 1
Task for the reader: assign each of the following molecules its reported Population Mitochondria Different-Phenotype (%).
Hi! Could you send only the number? It should be in %, unit omitted.

QUERY: Looking for the measured Population Mitochondria Different-Phenotype (%) of Cl.Cl.Nc1ncnc2c1c(-c1cccc(OCc3ccccc3)c1)cn2[C@H]1C[C@@H](CN2CCC2)C1 , can you help?
RESULT: 94

QUERY: Fill in: Population Mitochondria Different-Phenotype (%) of O=C(O)c1ccc2cc(-c3ccc(O)c(C45CC6CC(CC(C6)C4)C5)c3)ccc2c1 is ___
RESULT: 70

QUERY: Consider the molecule CCC(=O)O[C@]1(C(=O)SCF)[C@H](C)C[C@H]2[C@@H]3C[C@H](F)C4=CC(=O)C=C[C@]4(C)[C@@]3(F)[C@@H](O)C[C@@]21C [FLUTICASONE PROPIONATE] and give its measured Population Mitochondria Different-Phenotype (%).
RESULT: 87

###

System: HEK-293T
Experiment: Multiplex assay against HEK293T
Assay type: toxicity, cell-based
Details: human, 12 h, 1 µM, compound concentration 1 uM, replicate 2
Measurement Type: Population Apoptotic (%)
Report the figure in % without appending any unit label.

QUERY: Which Population Apoptotic (%) is reported with HEK-293T for this entry: CC(C)N1CCC(C)(C)c2cc(C#Cc3ccc(C(=O)O)cc3)ccc21 ?
RESULT: 18

QUERY: Any idea what Population Apoptotic (%) came out for N#Cc1cnc(Nc2cc(NC[C@H]3CNCCO3)c(C(F)(F)F)cn2)cn1 on HEK-293T?
RESULT: 12

QUERY: Hello, I am looking for reported Population Apoptotic (%) with HEK-293T for CCn1c(-c2nonc2N)nc2cnc(Oc3cccc(NC(=O)c4ccc(OCCN5CCOCC5)cc4)c3)cc21 [GSK-269962A] . Could you help?
RESULT: 12

QUERY: What Population Apoptotic (%) appears in the records for this compound with HEK-293T? CCc1cc2c(cc1CC)CC(NC[C@H](O)c1ccc(O)c3[nH]c(=O)ccc13)C2
RESULT: 6

QUERY: Query Population Apoptotic (%) on HEK-293T for CNC(=O)c1cc(Oc2ccc(NC(=O)Nc3cc(C(C)(C)C)nn3-c3ccc4ncccc4c3)c(F)c2)ccn1
RESULT: 11

QUERY: Recorded Population Apoptotic (%) for CN(C)CCOc1ccc(-c2nc(-c3ccncc3)c(-c3ccc4c(c3)CC/C4=N\O)[nH]2)cc1 with HEK-293T, please?
RESULT: 17

QUERY: Form field - read-out: Population Apoptotic (%); system: HEK-293T; submitted item: CNc1oc(-c2cccc3ccccc23)nc1C#N
RESULT: 14

QUERY: Request - read-out Population Apoptotic (%) | tested on HEK-293T | compound Nc1ccc(C(=O)Nc2cccc(-c3nc(N4CCOCC4)c4oc5ncccc5c4n3)c2)cn1
RESULT: 34

QUERY: API: value(readout= Population Apoptotic (%), system= HEK-293T, query= Cl.Cl.NC1(c2ccc(-c3nc4ccn5c(=O)[nH]nc5c4cc3-c3ccccc3)cc2)CCC1 )
RESULT: 11

###

Please go through the items and note down their Growth Rate.
Tested on: U2OS
Assay: Incucyte cell viability with U2OS; further: filed as whole numbers so only -1 and 0 and 1 occur
Assay type: toxicity, cell-based
Conditions: human, 24 h, 10 µM, compound concentration 10 uM, replicate number 2, timepoint 24 hours
// no unit, no text: just the number

QUERY: If you can, please state the reported Growth Rate value of FC(F)(F)c1c(N2CCC(c3ccccc3)CC2)ccn2c(CC3CC3)nnc12 .
RESULT: 1

QUERY: Entry under review: CC1(C)CNc2cc(NC(=O)c3cccnc3NCc3ccncc3)ccc21.O=P(O)(O)O.O=P(O)(O)O [MOTESANIB DIPHOSPHATE] . Reported Growth Rate?
RESULT: 0

QUERY: Growth Rate lookup needed for Cc1c(Oc2ccc(F)cc2)c(OC(C)C)nn1-c1ccc(C2CC2)cn1 , thanks.
RESULT: 0

QUERY: What Growth Rate value was documented for this compound, C[C@@H]1CN(c2cc(-c3nn(C)c4ccc(OC5(C)CC5)cc34)ncn2)C[C@H](C)O1 ?
RESULT: 1

QUERY: Reported Growth Rate, compound CNc1oc(-c2cccc3ccccc23)nc1C#N : ____
RESULT: 1
